Just for reference, the supplement of paper PMC10065799 is where these values come from.

Listed here are sequences together with their documented phosphorylation enrichment.
target: FGFR3 (UniProt P22607); test: phosphorylation enrichment, bacterial display (enrichment ratio); higher = better substrate or ligand; peptides without Tyr show the background;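 also: 11-residue human phosphosite peptides and single-mutation variants displayed on the E. coli surface, counted by deep sequencing, each peptide's frequency after selection divided by its frequency in the unselected input library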;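 also: frequency after pTyr selection over input frequency; kinase dosed for 20-30% of maximal phosphorylation in three min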
Sequence (P22607 whole entry, looked up): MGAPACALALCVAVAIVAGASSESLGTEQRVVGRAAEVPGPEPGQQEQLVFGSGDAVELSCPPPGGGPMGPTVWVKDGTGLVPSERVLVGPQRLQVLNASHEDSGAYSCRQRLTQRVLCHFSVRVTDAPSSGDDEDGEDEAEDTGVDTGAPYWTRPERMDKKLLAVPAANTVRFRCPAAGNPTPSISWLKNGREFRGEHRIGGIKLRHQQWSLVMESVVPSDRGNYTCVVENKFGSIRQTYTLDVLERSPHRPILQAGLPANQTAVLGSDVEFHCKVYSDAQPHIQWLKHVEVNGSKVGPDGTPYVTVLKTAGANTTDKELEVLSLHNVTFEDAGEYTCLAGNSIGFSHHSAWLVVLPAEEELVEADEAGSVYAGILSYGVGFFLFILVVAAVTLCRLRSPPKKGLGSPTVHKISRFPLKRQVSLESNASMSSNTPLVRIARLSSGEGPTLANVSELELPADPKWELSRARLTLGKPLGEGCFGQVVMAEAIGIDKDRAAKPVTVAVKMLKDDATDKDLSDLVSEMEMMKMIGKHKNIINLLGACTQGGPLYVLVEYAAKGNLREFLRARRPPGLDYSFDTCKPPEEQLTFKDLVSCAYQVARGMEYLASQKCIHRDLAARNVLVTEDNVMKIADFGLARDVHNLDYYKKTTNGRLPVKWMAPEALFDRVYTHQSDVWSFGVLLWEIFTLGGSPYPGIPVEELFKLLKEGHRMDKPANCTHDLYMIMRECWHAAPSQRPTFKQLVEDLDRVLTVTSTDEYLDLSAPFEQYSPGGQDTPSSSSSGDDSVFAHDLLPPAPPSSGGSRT
Quick one: just the number, no unit, thanks!

Here's what some known entries look like.
SHMVNYQPFRK [TEX37_Y25_D24N_YF]: 0.364
ADLAKYICENQ [ALB_Y287]: 0.788
SQAPGYSFTAA [CYCS_Y47_G42S_YF]: 0.53
SFLSYYTSHVQ [NEFL_Y443_P440L]: 1.01
RTLIRYAKLGN [BEST1_Y131_N133K]: 0.612
KYWREYILSLE [GPC3_Y299]: 0.752
GISDEYHVIRR [GCDH_Y398_H403R]: 0.881
IDNKMYDPKMN [ENPP1_Y280]: 0.471
HNELYYEAAEH [VANGL1_Y345_E347A]: 4.38
FLQTDDTSQVS [FRMPD1_Y846_Y846D]: 0.645

Task item: Endpoint output: phosphorylation enrichment of LDPMVYMNDKS [PTK2B_Y834] . Value?
Reply: 0.586

Task item: Same read-out for LGLDEYLDKLK [FMNL2_Y352] ?
Reply: 0.971
